Values compiled from patent US20220195055A1.

Target: T1, CD25 protein (Sino Biological, 10165-H08H) (UniProt P01589 22-213)
T1 construct: Bought recombinant protein; It speaks elsewhere of human CD25; also called antigen CD25; IL-2Rα
T1 sequence (looked up): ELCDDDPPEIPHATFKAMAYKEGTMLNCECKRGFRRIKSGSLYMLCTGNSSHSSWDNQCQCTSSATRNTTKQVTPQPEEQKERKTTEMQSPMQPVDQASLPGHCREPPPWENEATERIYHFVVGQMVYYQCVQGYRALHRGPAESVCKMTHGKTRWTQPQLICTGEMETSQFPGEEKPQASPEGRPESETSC
Assay: SPR (BIAcore 8K); antibody captured by anti-human IgG Fc, CD25 protein as analyte, 1:1 model
recorded.metric: kon (M⁻¹ s⁻¹)
One number for each entry, in M⁻¹ s⁻¹.

Can you give me kon for all of these, one by one?
1. CD25Q14-BA443-IgG1 (antibody, V domains shown, IgG1 expressed in HEK293) VH: EVQLVQSGAEVKKPGESLKISCKGSGYSFSNYWIGWVRQMPGKGLEWMGIISPGDSTTKYSPSFQGQVTFSADKSTSTAYLQWSSLQASDTAMYYCVRGPYYLDYWGQGTLVTVSS VL: DIQMTQSPSTLSASVGDRVTITCRASQSVSGYLAWYQQKPGKAPKLLIYKTSSLESGVPSRFSGSGSGTDFTLTISSLQAEDVAVYYCQQYYSTPWTFGQGTKVEIKR
2. CD25-MA251-IgG1 (antibody, V domains shown, also called CD25Q-MA251; control antibody) VH: QVQLKESGPGLVAPSQSLSITCTVSGFSLTSYGIQWVRQPPGKGLEWLGVIWAGGSTNYNSALMSRLSISKDNSKSQVFLKMNSLQTDDTAMYYCARAYGYDGSWLAYWGQGTLVTVSS VL: QIVLSQSPAILSASPGEKVTMTCRASSSVSYMHWYQQKPGSSPKPWIFATSNLASGVPARFSGSGSGTSYSLTINRVEAEDADTYYCQQWSSNPPTFGGGTKLEIKR

Output line:
136000
176000

Just so you know, measured kon for CD25Q3-BA125-IgG1 (antibody, V domains shown, IgG1; also called CD25Q2-BA125) VH: EVQLVQSGAEVKKPGESLKISCKGSGYSFANYWIVWVRQMPGKGLEWMGIIYPDDSETRYSPSFQGQVTFSADKSISTAYLQWSSLKASDTAMYYCTRGPYYSDYWGQGTLVTVSS VL: DIQMTQSPSTLSASVGDRVTITCRASQIISGYLAWYQQKPGKAPKLLIYKASSLESGVPSRFSGSGSGAEFTLTISSLQPDDFATYYCQQYNSYTWTFGQGTKVEIKR came out at 699000
